These measurements were taken from ChEMBL document CHEMBL2440084.

EXPERIMENTAL_SYSTEM: UniProt:P22460
ASSAY_METHOD_TEXT: Inhibition of human Kv1.5 channel expressed in HEK293 cells by whole cell patch clamp technique
Assay type: cell-based
READOUT_TYPE: inhibition

COMPOUND | inhibition
COC(=O)C(Cc1c[nH]c2ccccc12)NS(=O)(=O)c1ccc(C)cc1 (centres undefined) | Dose-dependent effect
CCCCOc1ccc(S(=O)(=O)NCCc2cn(CC(=O)Nc3ccc(Cl)cc3)c3ccccc23)cc1 | Dose-dependent effect
Cc1ccc(S(=O)(=O)NCCc2cn(CC(=O)Nc3ccc(Cl)cc3)c3ccccc23)cc1 | Dose-dependent effect
Cc1ccc(S(=O)(=O)N/N=C/c2cn(CC(=O)Nc3ccc(OC(F)(F)F)cc3)c3ccccc23)cc1 | Dose-dependent effect
Cc1ccc(S(=O)(=O)N/N=C/c2cn(CC(=O)Nc3ccc(Cl)cc3)c3ccccc23)cc1 | Dose-dependent effect

Req: Form entry - test system: UniProt:P22460; read-out: inhibition; compound: Cc1ccc(S(=O)(=O)N/N=C/c2cn(CC(=O)Nc3ccc(C)c(C)c3)c3ccccc23)cc1
Resp: Dose-dependent effect

Req: Short answer please: inhibition, UniProt:P22460, entry Cc1ccc(S(=O)(=O)N/N=C/c2cn(CC(=O)Nc3cc(C)ccc3C)c3ccccc23)cc1
Resp: Dose-dependent effect

Req: Give recorded inhibition with UniProt:P22460 for the following compound: CCCCOc1ccc(S(=O)(=O)NC(Cc2ccccc2)C(=O)OC)cc1 (centres undefined)
Resp: Dose-dependent effect

Req: Record lookup: for UniProt:P22460, what inhibition belongs to COC(=O)C(Cc1c[nH]c2ccccc12)NS(=O)(=O)c1ccc(OC(C)C)cc1 (centres undefined) ?
Resp: Dose-dependent effect

====

EXPERIMENTAL_SYSTEM: Potassium voltage-gated channel subfamily A member 5 (Homo sapiens)
ASSAY_METHOD_TEXT: Inhibition of human Kv1.5 channel expressed in HEK293 cells by whole cell patch clamp technique
pIC50: −log10 of the molar value.
READOUT_TYPE: pIC50

(I) Cc1ccc(S(=O)(=O)N/N=C/c2cn(CC(=O)Nc3ccc(OC(F)(F)F)cc3)c3ccccc23)cc1
(II) CCCCOc1ccc(S(=O)(=O)NC(Cc2ccccc2)C(=O)OC)cc1 (stereo not drawn)
(III) CCCCOc1ccc(S(=O)(=O)NCCc2c[nH]c3ccccc23)cc1
Req: Hello, I need these entries ordered by pIC50, highest reading first. Thanks! Return value: ordered labels per request.
Resp: I, III, II
(I: 5.82, III: 5.00, II: 3.96)

====

Organism: Homo sapiens
ASSAY_METHOD_TEXT: Selectivity ratio of IC50 for human ERG channel to IC50 for human Kv1.5 channel
READOUT_TYPE: Ratio IC50

Some entries whose results are on file:
SMILES_CODE | Ratio IC50
Cc1ccc(S(=O)(=O)N/N=C/c2cn(CC(=O)Nc3ccccc3Cl)c3ccccc23)cc1 | 25.2
Cc1ccc(S(=O)(=O)N/N=C/c2cn(CC(=O)Nc3ccc(F)cc3F)c3ccccc23)cc1 | 172

(I) COc1ccc(NC(=O)Cn2cc(CCNS(=O)(=O)c3ccc(OC)cc3)c3ccccc32)cc1
(II) Cc1ccc(S(=O)(=O)N/N=C/c2cn(CC(=O)Nc3ccccc3)c3ccccc23)cc1
Req: Recorded Ratio IC50 values differ for I and II ; which one is higher? Answer = label.
Resp: II
(II: 53.9, I: 5.95)

(A) CCCCOc1ccc(S(=O)(=O)NCCc2c[nH]c3ccccc23)cc1
(B) COc1ccc2c(c1)c(/C=N/NS(=O)(=O)c1ccc(C)cc1)cn2CC(=O)Nc1ccc(Cl)cc1
Req: Rank A against B by their Ratio IC50 values and give the higher one. Which one? Tell me its label.
Resp: B

====

EXPERIMENTAL_SYSTEM: Potassium voltage-gated channel subfamily A member 5 (Homo sapiens, UniProt P22460)
Sequence (P22460 whole entry): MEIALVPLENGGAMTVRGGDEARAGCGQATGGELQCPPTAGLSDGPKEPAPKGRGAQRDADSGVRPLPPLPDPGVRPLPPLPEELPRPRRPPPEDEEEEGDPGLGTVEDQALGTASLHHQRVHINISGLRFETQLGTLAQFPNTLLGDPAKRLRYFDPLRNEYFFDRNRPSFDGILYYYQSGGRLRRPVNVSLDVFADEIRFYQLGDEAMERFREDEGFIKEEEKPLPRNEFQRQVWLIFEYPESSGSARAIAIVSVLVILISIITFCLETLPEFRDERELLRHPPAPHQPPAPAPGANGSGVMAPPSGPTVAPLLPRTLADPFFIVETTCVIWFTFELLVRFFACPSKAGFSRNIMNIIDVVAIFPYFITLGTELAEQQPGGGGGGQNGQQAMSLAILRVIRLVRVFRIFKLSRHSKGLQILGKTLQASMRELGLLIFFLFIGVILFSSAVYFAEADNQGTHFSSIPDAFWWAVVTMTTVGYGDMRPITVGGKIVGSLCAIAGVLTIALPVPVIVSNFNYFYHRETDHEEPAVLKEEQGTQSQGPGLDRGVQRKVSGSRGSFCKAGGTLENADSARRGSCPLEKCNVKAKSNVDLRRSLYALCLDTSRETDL
ASSAY_METHOD_TEXT: Inhibition of human Kv1.5 channel expressed in HEK293 cells by whole cell patch clamp technique
READOUT_TYPE: IC50 (µM)

COMPOUND | VALUE_REPORTED
COC(=O)C(Cc1c[nH]c2ccccc12)NS(=O)(=O)c1ccc(Br)cc1 (centres undefined) | 2.25
CCCCOc1ccc(S(=O)(=O)NCCc2cn(CC(=O)Nc3ccc(OC)cc3)c3ccccc23)cc1 | 6.21
COC(=O)C(Cc1c[nH]c2ccccc12)NS(=O)(=O)c1ccc(F)cc1 (centres undefined) | 6.45
COC(=O)C(Cc1c[nH]c2ccccc12)NS(=O)(=O)c1ccc(OC)cc1 (centres undefined) | 5.45
COc1ccc(NC(=O)Cn2cc(CCNS(=O)(=O)c3ccc(OC)cc3)c3ccccc32)cc1 | 1.72

(1) Cc1ccc(S(=O)(=O)N/N=C/c2cn(CC(=O)Nc3ccc(Cl)cc3)c3ccccc23)cc1
(2) COc1ccc(NC(=O)Cn2cc(CCNS(=O)(=O)c3ccc(C)cc3)c3ccccc32)cc1
(3) COC(=O)C(Cc1c[nH]c2ccccc12)NS(=O)(=O)c1ccc(C)cc1 (centres undefined)
(4) CCCCOc1ccc(S(=O)(=O)NC(Cc2c[nH]c3ccccc23)C(=O)O)cc1 (centres undefined)
Req: Rank ascending by IC50. Lab note: final answer is the ordered label list.
Resp: 1, 3, 2, 4

====

EXPERIMENTAL_SYSTEM: UniProt Q12809
Sequence (Q12809 whole entry): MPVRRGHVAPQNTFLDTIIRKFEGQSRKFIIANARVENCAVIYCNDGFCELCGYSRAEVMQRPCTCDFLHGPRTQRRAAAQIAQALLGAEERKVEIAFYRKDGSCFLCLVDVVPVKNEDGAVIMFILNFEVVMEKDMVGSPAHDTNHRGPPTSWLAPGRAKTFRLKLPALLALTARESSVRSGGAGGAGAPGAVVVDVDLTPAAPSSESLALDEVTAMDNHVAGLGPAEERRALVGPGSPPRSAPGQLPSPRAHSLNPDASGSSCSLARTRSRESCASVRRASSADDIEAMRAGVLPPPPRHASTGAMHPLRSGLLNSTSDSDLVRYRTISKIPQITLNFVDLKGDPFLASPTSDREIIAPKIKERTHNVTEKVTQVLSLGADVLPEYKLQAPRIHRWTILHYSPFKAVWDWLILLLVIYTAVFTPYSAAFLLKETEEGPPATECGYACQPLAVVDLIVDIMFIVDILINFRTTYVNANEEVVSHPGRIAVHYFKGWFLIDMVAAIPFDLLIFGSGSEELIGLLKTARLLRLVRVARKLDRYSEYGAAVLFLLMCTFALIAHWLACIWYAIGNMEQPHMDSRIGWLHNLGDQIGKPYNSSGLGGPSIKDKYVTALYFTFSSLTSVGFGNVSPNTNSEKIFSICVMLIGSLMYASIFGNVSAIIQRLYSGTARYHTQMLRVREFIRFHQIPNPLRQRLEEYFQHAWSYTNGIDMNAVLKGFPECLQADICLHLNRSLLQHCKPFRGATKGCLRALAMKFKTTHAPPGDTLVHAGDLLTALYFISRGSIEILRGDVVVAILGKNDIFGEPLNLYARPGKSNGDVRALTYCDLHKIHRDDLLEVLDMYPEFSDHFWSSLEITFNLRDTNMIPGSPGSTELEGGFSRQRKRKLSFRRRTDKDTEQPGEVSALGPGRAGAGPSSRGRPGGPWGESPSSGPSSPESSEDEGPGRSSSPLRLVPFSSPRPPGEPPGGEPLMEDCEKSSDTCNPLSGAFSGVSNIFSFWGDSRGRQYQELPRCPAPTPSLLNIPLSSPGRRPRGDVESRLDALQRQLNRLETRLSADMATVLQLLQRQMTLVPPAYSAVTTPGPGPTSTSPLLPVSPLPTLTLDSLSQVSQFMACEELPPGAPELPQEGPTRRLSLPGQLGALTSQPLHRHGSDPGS
ASSAY_METHOD_TEXT: Inhibition of human ERG channel expressed in CHO cells by whole cell patch clamp technique
READOUT_TYPE: pIC50
Friendly reminder that pIC50 comes from taking -log10 of the concentration in mol/L.

Known results for compounds:
SMILES_CODE | EXPERIMENTAL_SYSTEM | pIC50
COc1ccc2c(c1)c(/C=N/NS(=O)(=O)c1ccc(C)cc1)cn2CC(=O)Nc1ccc(Cl)cc1 | UniProt Q12809 | 3.38
Cc1ccc(S(=O)(=O)N/N=C/c2cn(CC(=O)Nc3ccccc3)c3ccccc23)cc1 | UniProt Q12809 | 4.36

Req: Any idea what its pIC50 is? The compound is CCCCOc1ccc(S(=O)(=O)NCCc2c[nH]c3ccccc23)cc1
Resp: 5.50

Req: Record request: pIC50 value, item Cc1ccc(S(=O)(=O)N/N=C/c2cn(CC(=O)Nc3ccc(F)cc3F)c3ccccc23)cc1
Resp: 4.37

Req: Which pIC50 is reported for this compound? COc1ccc(NC(=O)Cn2cc(CCNS(=O)(=O)c3ccc(OC)cc3)c3ccccc32)cc1
Resp: 4.99

Req: What measured pIC50 goes with Cc1ccc(S(=O)(=O)N/N=C/c2cn(CC(=O)Nc3ccccc3Cl)c3ccccc23)cc1 ?
Resp: 4.73

====

EXPERIMENTAL_SYSTEM: Potassium voltage-gated channel subfamily A member 5 (Homo sapiens, UniProt P22460)
ASSAY_METHOD_TEXT: Inhibition of human Kv1.5 channel expressed in HEK293 cells by whole cell patch clamp technique
READOUT_TYPE: IC50 (µM)

Here is how some compounds turned out for IC50.
COMPOUND | VALUE_REPORTED
Cc1ccc(S(=O)(=O)N/N=C/c2cn(CC(=O)Nc3ccccc3)c3ccccc23)cc1 | 0.81
COc1ccc2c(c1)c(/C=N/NS(=O)(=O)c1ccc(C)cc1)cn2CC(=O)Nc1ccccc1 | 3.73
Cc1ccc(S(=O)(=O)N/N=C/c2cn(CC(=O)Nc3ccc(C)cc3C)c3ccccc23)cc1 | 24
CCCCOc1ccc(S(=O)(=O)NCCc2cn(CC(=O)Nc3ccc(Cl)cc3)c3ccccc23)cc1 | 185
Cc1ccc(S(=O)(=O)NCCc2cn(CC(=O)Nc3ccc(Cl)cc3)c3ccccc23)cc1 | 12.9

(P) Cc1ccc(S(=O)(=O)N/N=C/c2cn(CC(=O)Nc3ccc(C)c(C)c3)c3ccccc23)cc1
(Q) Cc1ccc(S(=O)(=O)N/N=C/c2cn(CC(=O)Nc3ccccc3Cl)c3ccccc23)cc1
Req: Looking only at measured IC50, which entry is lower, P or Q ? Mark your selection by writing its label.
Resp: Q

====

EXPERIMENTAL_SYSTEM: Potassium voltage-gated channel subfamily A member 5 (Homo sapiens, UniProt P22460)
ASSAY_METHOD_TEXT: Inhibition of human Kv1.5 channel expressed in HEK293 cells by whole cell patch clamp technique
READOUT_TYPE: IC50 (nM)

COMPOUND | IC50 / nM
COC(=O)C(Cc1c[nH]c2ccccc12)NS(=O)(=O)c1ccc(OC(C)C)cc1 (stereo unspecified) | 3930
COc1ccc2c(c1)c(/C=N/NS(=O)(=O)c1ccc(C)cc1)cn2CC(=O)Nc1ccc(F)cc1F | 2180
COC(=O)C(Cc1c[nH]c2ccccc12)NS(=O)(=O)c1ccc(OC2CCCC2)cc1 (stereo unspecified) | 2380
Cc1ccc(S(=O)(=O)N/N=C/c2cn(CC(=O)Nc3ccc(F)cc3F)c3ccccc23)cc1 | 250
COc1ccc(S(=O)(=O)NCCc2cn(CC(=O)Nc3ccc(Cl)cc3)c3ccccc23)cc1 | 3140

(I) Cc1ccc(S(=O)(=O)N/N=C/c2cn(CC(=O)Nc3cc(C)ccc3C)c3ccccc23)cc1
(II) COc1ccc(NC(=O)Cn2cc(/C=N/NS(=O)(=O)c3ccc(C)cc3)c3ccccc32)cc1
Req: Which is greater in IC50, the first item I or the second item II ? Answer by quoting the chosen item's label.
Resp: II
